# CONDITION_SUMMARY: buffer; pH 7.4; 200.0 µM
Response key: TRUE means solubility kinetic >= 30 µg/mL; FALSE means solubility kinetic < 30 µg/mL.

* CCC(=O)Oc1ccc(C2NC(=O)c3ccccc3O2)cc1OC (centres undefined) | FALSE
* C=CCOC(=O)C1=C(C)NC(=O)NC1c1ccc(OCC)cc1 (centres undefined) | FALSE
* Cn1c(C2=C(O)CN(c3ccccc3)C2=N)nc2ccccc21 | TRUE
* COC(=O)c1cc(S(=O)(=O)N(C)Cc2ccco2)c[nH]1 | TRUE
* N#C/C(=C\c1ccc(F)cc1)C(=O)NC1CCS(=O)(=O)C1 (centres undefined) | TRUE
* O=C(Cc1ccc(Cl)cc1)Nc1ccc(Br)cn1 | FALSE
* Cc1sc2ncnc(SCC(=O)N3CCCCC3)c2c1C | FALSE
* Cc1ccc(C(=O)COC(=O)CN2C(=O)C3C4C=CC(C4)C3C2=O)cc1C (centres undefined) | TRUE
* COCCNCC(=O)N1CCCCCC1.O=C(O)C(=O)O | TRUE
* CCC(=O)Nc1ccc2c(c1)N(C(C)=O)c1ccccc1CC2 | TRUE
* O=c1[nH]c(-c2ccccc2)ncc1Oc1ccccc1 | TRUE
* CN(CC(=O)Nc1ccc(OC(F)F)cc1)S(=O)(=O)/C=C/c1ccccc1 | FALSE
* Cc1cnc([N+](=O)[O-])n1CCOC(=O)NC(=O)c1ccc(F)cc1 | TRUE
* CC1=C(C(N)=O)C(c2cccs2)NC(=S)N1 (centres undefined) | TRUE
* Cc1cccc(NC(=O)Cn2c(=O)oc3ccccc32)n1 | TRUE
* N#C/C(=C\c1c(N2CCCCCC2)nc2ccccn2c1=O)C(N)=O | TRUE
* N#CCc1ccc(Oc2ncccn2)cc1 | TRUE
* Cc1cccc(OCc2ccc(C(=O)N3CCOCC3)o2)c1 | TRUE
* CCC(COC(C)=O)Nc1nc2c([nH]1)c(=O)n(C)c(=O)n2C (centres undefined) | TRUE
* CC(C)NC(=O)N1c2ccccc2Sc2ccccc21 | TRUE
* O=[N+]([O-])c1ccc(NS(=O)(=O)c2cccc3cccnc23)cc1 | FALSE
* CC(=O)c1c(C)[nH]c(C(=O)Nc2cccc(S(=O)(=O)N3CCCC3)c2)c1C | FALSE
* COc1ccc(Cl)cc1C(=O)Nc1ccncc1 | TRUE

###

Listing: solubility kinetic of selected compounds
# CONDITION_SUMMARY: buffer; pH 7.4; 200.0 µM
REPORTED_ENDPOINT: solubility kinetic (µg/mL)

- CC(=O)c1ccc(Sc2ccccc2N)c([N+](=O)[O-])c1: 19.6
- CN(c1nc2ccccc2[nH]c1=O)C1CCCCC1: 2.9
- COc1ccc(NC(=O)CN2CCN(c3c(C)cc(C)cc3C)CC2)cc1: 3.9
- C=CCn1c(O)c(C(C)=NCCc2c[nH]c3ccccc23)c(=O)[nH]c1=O: 33.5
- Cc1cccc(C)c1NC(=O)C1CCN(C(=O)c2cccs2)CC1: 39.1
- O=C(CCCc1c[nH]c2ccccc12)Nc1ncccc1O: 35.9
- O=C(COc1ccccc1)Nc1c(Cl)ccc2nsnc12: 4.7
- COc1cc(NC(=O)c2onc(C)c2Cl)cc(OC)c1OC: 28.7
- CC(=O)Nc1ccc(C2NC(=O)CCC2[N+](=O)[O-])cc1 (centres undefined): 31.7
- CCOC(=O)C1CCN(C(=O)c2cccnc2Oc2ccccc2)CC1: 50.9
- NS(=O)(=O)c1cc(C(=O)Nc2ccc3c(c2)CCC3)ccc1Cl: 4.6
- CCOC(=O)c1cc(C)n(-c2ccc(Cl)cc2)c1C: 1.2
- Cc1ccc(CN2CCC(N3CC(C)OC(C)C3)CC2)cc1.Cl (centres undefined): 31.8
- CCOC(=O)CCn1c(=S)n(CCC(=O)OCC)c2ccccc21: 49.5
- Cc1cc(SCc2ccc(Cl)cc2Cl)nc(=O)[nH]1: 4.6
- CC(C(=O)NC(C)(C)C)N1C(=O)c2cccc3cccc(c23)C1=O (centres undefined): 40.2
- Cc1ccc(S(=O)(=O)c2nc(-c3ccccc3Cl)oc2N2CCN(C)CC2)cc1: 25.2
- CN1CCN(CC#CCC2(O)c3ccccc3-c3ccccc32)CC1: 42.1

Each recorded value in this set is attributed to PubChem BioAssay AID1996.
